# method_notes: Pharmacokinetics in Sprague Dawley rats (plasma and brain concentrations, PK parameters)
# Format: in vivo
# settings: Sprague-Dawley, rat, plasma, iv, 3 mg/kg, Sprague Dawley rat, iv 3 mg/kg, plasma, 24 h, Rat 2; read-out: Concentration Rat 2

compound: O=C1CCC(N2C(=O)c3cccc(NCCOCCOCCNCc4ccc(-n5cc(NC(=O)c6coc(-c7ccnc(NCC8CC8)c7)n6)c(C(F)F)n5)cc4)c3C2=O)C(=O)N1 (stereo not shown)
concentration at 24 h [ng/mL]: 0.545

* * *

# method_notes: Pharmacokinetics in CD-1 mice (plasma concentrations, PK parameters)
# Assay type: in vivo
# settings: CD-1, mouse, plasma, sc, 30 mg/kg, mouse (CD1) sc 30 mg/kg; 6 h; Mean; read-out: Concentration

compound: NC(=O)c1nn(-c2ccc(C(=O)NCCCCCNCCNc3cccc4c3C(=O)N(C3CCC(=O)NC3=O)C4=O)cc2)cc1NC(=O)c1coc(-c2ccnc(NCC(F)(F)F)c2)n1 (stereo not shown)
concentration at 6 h (ng/mL): 19.4

* * *

# test_system: IRAK4 (Homo sapiens, UniProt Q9NWZ3)
# Sequence (Q9NWZ3 whole entry): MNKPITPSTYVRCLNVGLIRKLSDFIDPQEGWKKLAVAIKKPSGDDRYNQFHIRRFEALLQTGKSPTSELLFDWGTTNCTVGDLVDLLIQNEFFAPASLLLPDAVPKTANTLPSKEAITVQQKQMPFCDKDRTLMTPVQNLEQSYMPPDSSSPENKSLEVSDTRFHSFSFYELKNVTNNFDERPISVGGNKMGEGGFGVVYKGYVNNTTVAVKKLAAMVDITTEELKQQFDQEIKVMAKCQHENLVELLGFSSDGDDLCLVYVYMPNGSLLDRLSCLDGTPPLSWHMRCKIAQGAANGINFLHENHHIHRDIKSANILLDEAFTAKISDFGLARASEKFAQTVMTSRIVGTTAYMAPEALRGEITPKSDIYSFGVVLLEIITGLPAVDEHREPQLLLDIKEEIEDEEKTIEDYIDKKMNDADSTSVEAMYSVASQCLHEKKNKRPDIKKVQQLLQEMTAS
# method_notes: OCI-LY-10 degradation assay (western blot, % IRAK4 degraded after 4 hours)
# Type: cell-based
# Design: endogenous in cells; host or cells: OCI-LY10
# settings: OCI-LY10 cells, 4 hours, 0.1 uM compound

compound: O=C1CCC(N2C(=O)c3cccc(CCCNC(=O)c4ccc(-n5cc(NC(=O)c6coc(-c7ccncc7)n6)c(C(F)F)n5)cc4)c3C2=O)C(=O)N1 (stereo not drawn)
OCI-LY10 % IRAK4 Degradation (0.1 uM): C (<20% degradation)
--
compound: O=C1CCC(N2C(=O)c3ccc(CCCNCc4ccc(-n5cc(NC(=O)c6coc(-c7ccnc(NCC8CC8)c7)n6)c(C(F)F)n5)cc4)cc3C2=O)C(=O)N1 (stereo not drawn)
OCI-LY10 % IRAK4 Degradation (0.1 uM): C (<20% degradation)

* * *

Let's look at some compounds and their measured DC50.
# test_system: IRAK4 (Homo sapiens)
# method_notes: OCI-LY-10 MSD assay for IRAK4 DC50
# Format: cell-based
# Design: endogenous in cells; host or cells: OCI-LY10
# settings: OCI-LY10 cells, 4 hr incubation, concentration required to degrade 50% of protein

compound: NC(=O)c1nn(-c2ccc(CNCCOCCCc3cccc4c3C(=O)N(C3CCC(=O)NC3=O)C4=O)cc2)cc1NC(=O)c1coc(-c2ccnc(NCC(F)(F)F)c2)n1 (stereo not drawn) [I-320]
DC50: > 1 µM
//
compound: O=C1CCC(N2C[C@H](c3ccc(C#CCN4CCO[C@@H](CNC(=O)c5ccc(-n6cc(NC(=O)c7coc(-c8ccnc(NCC9CC9)c8)n7)c(C(F)F)n6)cc5)C4)cc3)OC2=O)C(=O)N1 (stereo partly drawn) [I-509]
DC50: < 0.05 µM
//
compound: CN[C@@H](C)C(=O)N[C@H](C(=O)N1CCC[C@H]1c1nc(C(=O)c2cccc(OCCOCCOCCOCCNCc3ccc(-n4cc(NC(=O)c5coc(-c6ccnc(NCC7CC7)c6)n5)c(C(F)F)n4)cc3)c2)cs1)C1CCCCC1 [I-554]
DC50: > 1 µM
//
compound: CN(CC[C@H]1CN(CCCc2ccc3c(c2)n(C)c(=O)n3C2CCC(=O)NC2=O)CCO1)Cc1ccc(-n2cc(NC(=O)c3coc(-c4ccnc(NCC5CC5)c4)n3)c(C(F)F)n2)cc1 (stereo partly drawn) [I-592]
DC50: < 0.05 µM
//
compound: Cn1c(=O)n(C2CCC(=O)NC2=O)c2cccc(CCCOCCCNCc3ccc(-n4cc(NC(=O)c5coc(-c6ccnc(NCC7CC7)c6)n5)c(C(F)F)n4)cc3)c21 (stereo not drawn) [I-404]
DC50: < 0.05 µM
//
compound: Cn1cc(NC(=O)c2coc(-c3ccnc(NCC(F)(F)F)c3)n2)c(CNCCOCCOCCOCCNc2cccc3c2C(=O)N(C2CCC(=O)NC2=O)C3=O)n1 (stereo not drawn) [I-408]
DC50: > 1 µM
//
compound: Cn1c(=O)n(C2CCC(=O)NC2=O)c2cccc(CCCN3CCO[C@H](CNCc4ccc(-n5cc(NC(=O)c6coc(-c7ccnc(NCC(F)(F)F)c7)n6)c(C(N)=O)n5)cc4)C3)c21 (stereo partly drawn) [I-593]
DC50: < 0.05 µM
//
compound: NC(=O)c1nn(-c2ccc(CNCCCOCCCc3ccc4c(c3)oc(=O)n4C3CCC(=O)NC3=O)cc2)cc1NC(=O)c1coc(-c2ccnc(NCC(F)(F)F)c2)n1 (stereo not drawn) [I-567]
DC50: < 0.05 µM
//
compound: CN1CCN(C(=O)c2nn(-c3ccc(CNCCCCOCCCCc4ccc5c(c4)n(C)c(=O)n5C4CCC(=O)NC4=O)cc3)cc2NC(=O)c2coc(-c3ccnc(NCC(F)(F)F)c3)n2)CC1 (stereo not drawn) [I-559]
DC50: > 1 µM
//
compound: NC(=O)c1nn(-c2ccc(CNCCCOCCCNc3cccc4c3C(=O)N(C3CCC(=O)NC3=O)C4=O)cc2)cc1NC(=O)c1coc(-c2ccnc(NCC3CC3)c2)n1 (stereo not drawn) [I-399]
DC50: < 0.05 µM
//
compound: CN(CCCOCCCc1cccc2c1oc(=O)n2C1CCC(=O)NC1=O)C(=O)c1ccc(-n2cc(NC(=O)c3coc(-c4ccnc(NCC(F)(F)F)c4)n3)c(C(N)=O)n2)cc1 (stereo not drawn) [I-495]
DC50: < 0.05 µM
//
compound: Cn1c(=O)n(C2CCC(=O)NC2=O)c2cccc(CCCN3CCO[C@H](CNCc4ccc(-n5cc(NC(=O)c6coc(-c7ccnc(NCC8CC8)c7)n6)c(C(F)F)n5)cc4)C3)c21 (stereo partly drawn) [I-587]
DC50: < 0.05 µM
//
compound: CN(CCCOCCCc1cccc2c1oc(=O)n2C1CCC(=O)NC1=O)C(=O)c1ccc(-n2cc(NC(=O)c3coc(-c4ccnc(NCC5CC5)c4)n3)c(C(F)F)n2)cc1 (stereo not drawn) [I-476]
DC50: < 0.05 µM
//
compound: Cn1c(=O)n(C2CCC(=O)NC2=O)c2ccc(CCCOCCCNC(=O)c3ccc(-n4cc(NC(=O)c5coc(-c6ccnc(NCC7CC7)c6)n5)c(C(F)F)n4)cc3)cc21 (stereo not drawn) [I-459]
DC50: < 0.05 µM
//
compound: Cc1cc(-c2nc(C(=O)Nc3cn(-c4ccc(C(=O)NCCOCCOCCNc5cccc6c5C(=O)N(C5CCC(=O)NC5=O)C6=O)cc4)nc3C(N)=O)co2)ccn1 (stereo not drawn) [I-241]
DC50: < 0.05 µM
//
compound: O=C1CCC(N2C(=O)c3ccc(N4CCN(CCOCCOCCNC(=O)c5ccc(-n6cc(NC(=O)c7coc(-c8ccnc(NCC9CC9)c8)n7)c(C(F)F)n6)cc5)CC4)cc3C2=O)C(=O)N1 (stereo not drawn) [I-276]
DC50: 0.05 to 0.1 µM
//
compound: O=C1CCC(n2c(=O)oc3cc(CCCOCCOCCNCc4ccc(-n5cc(NC(=O)c6coc(-c7ccnc(NCC8CC8)c7)n6)c(C(F)F)n5)cc4)ccc32)C(=O)N1 (stereo not drawn) [I-550]
DC50: < 0.05 µM
//
compound: O=C1CCC(n2c(=O)oc3c(CCCOCCCNCc4ccc(-n5cc(NC(=O)c6coc(-c7ccnc(NCC8CC8)c7)n6)c(C(F)F)n5)cc4)cccc32)C(=O)N1 (stereo not drawn) [I-548]
DC50: < 0.05 µM
//
compound: O=C1CCC(N2C(=O)c3ccc(N4CCN(CCOCCOCCOCCNC(=O)c5ccc(-n6cc(NC(=O)c7coc(-c8ccnc(NCC9CC9)c8)n7)c(C(F)F)n6)cc5)CC4)cc3C2=O)C(=O)N1 (stereo not drawn) [I-278]
DC50: 0.05 to 0.1 µM
//
compound: COCC(=O)N[C@H](C(=O)N1Cc2cc(OCCOCCOCCOCCNCc3ccc(-n4cc(NC(=O)c5coc(-c6ccnc(NCC7CC7)c6)n5)c(C(F)F)n4)cc3)ccc2CC1C(=O)N[C@@H]1CCCc2ccccc21)C(C)(C)C (stereo partly drawn) [I-417]
DC50: > 1 µM
//
compound: Cn1c(=O)n(C2CCC(=O)NC2=O)c2cccc(CCCOCCOCCNCc3ccc(-n4cc(NC(=O)c5cocn5)c(C(N)=O)n4)cc3)c21 (stereo not drawn) [I-422]
DC50: > 1 µM

* * *

Let's look at some molecules and their measured DC50.
# test_system: IRAK4 (Homo sapiens, UniProt Q9NWZ3)
# method_notes: OCI-LY-10 MSD assay for IRAK4 DC50
# Format: cell-based
# Design: endogenous in cells; host or cells: OCI-LY10
# settings: OCI-LY10 cells, 4 hr incubation, concentration required to degrade 50% of protein
# Protocol: A MSD assay was run to determine the concentration of compound required to degrade 50% of protein (DC50). Day 1 • Compounds were reconstituted to 10 mM in stock solutions. […] Data Analysis • The remaining activity was calculated following the formula below: Calculate • The DC50 was calculated by fitting the Curve using Xlfit (v5.3.1.3), equation 201: Y=Bottom+(Top−Bottom)/(1+10^((Log IC50−X)*HillSlope)) […]
measurement_label: DC50

molecule: O=C1CCC(N2C(=O)c3ccc(NC4CCN(CCOCCOCCOCCNCc5ccc(-n6cc(NC(=O)c7coc(-c8ccnc(NCC9CC9)c8)n7)c(C(F)F)n6)cc5)CC4)cc3C2=O)C(=O)N1 (centres unmarked)
value_observed: 0.5 to 1 µM
--
molecule: NC(=O)c1nn(-c2ccc(C(=O)NCCOCCOCCCc3cccc4c3oc(=O)n4C3CCC(=O)NC3=O)cc2)cc1NC(=O)c1coc(-c2ccnc(NCC(F)(F)F)c2)n1 (centres unmarked)
value_observed: < 0.05 µM
--
molecule: NC(=O)c1nn(-c2ccc(CNCCOCCOCCOC(=O)NCc3ccc4c(c3)CN(C3CCC(=O)NC3=O)C4=O)cc2)cc1NC(=O)c1coc(-c2ccnc(NCC(F)(F)F)c2)n1 (centres unmarked)
value_observed: 0.1 to 0.5 µM
--
molecule: CC(=O)O[C@@H]1C[C@@H](C(=O)NCc2ccc(-n3cc(NC(=O)c4coc(-c5ccnc(NCC6CC6)c5)n4)c(C(F)F)n3)cc2)N(C(=O)COCCOCCOCCNc2cccc3c2C(=O)N(C2CCC(=O)NC2=O)C3=O)C1 (some centres unmarked)
value_observed: 0.05 to 0.1 µM
--
molecule: O=C1CCC(N2Cc3cc(CNC(=O)OCCNCc4ccc(-n5cc(NC(=O)c6coc(-c7ccnc(NCC8CC8)c7)n6)c(C(F)F)n5)cc4)ccc3C2=O)C(=O)N1 (centres unmarked)
value_observed: < 0.05 µM
--
molecule: Cn1cc(NC(=O)c2coc(-c3ccnc(NCC(F)(F)F)c3)n2)c(C(=O)NCCCOCCCOCCCNc2cccc3c2C(=O)N(C2CCC(=O)NC2=O)C3=O)n1 (centres unmarked)
value_observed: > 1 µM
--
molecule: O=C1CCC(N2C(=O)c3ccc(CCCOCCNCc4ccc(-n5cc(NC(=O)c6coc(-c7ccnc(NCC8CC8)c7)n6)c(C(F)F)n5)cc4)cc3C2=O)C(=O)N1 (centres unmarked)
value_observed: < 0.05 µM
--
molecule: NC(=O)c1nn(-c2ccc(COCC3CN(CCOCCNc4cccc5c4C(=O)N(C4CCC(=O)NC4=O)C5=O)CCO3)cc2)cc1NC(=O)c1coc(-c2ccnc(NCC(F)(F)F)c2)n1 (centres unmarked)
value_observed: < 0.05 µM
--
molecule: C=C1N(C)c2c(CCCOCCCN(C)C(=O)c3ccc(-n4cc(NC(=O)c5coc(-c6ccnc(NCC7CC7)c6)n5)c(C(F)F)n4)cc3)cccc2N1C1CCC(=O)NC1=O (centres unmarked)
value_observed: < 0.05 µM
--
molecule: CC(C)(C)[C@H](NC(=O)COCCOCCOCCNc1cccc2c1C(=O)N(C1CCC(=O)NC1=O)C2=O)C(=O)N1C[C@H](O)C[C@H]1C(=O)NCc1ccc(-n2cc(NC(=O)c3coc(-c4ccnc(NCC5CC5)c4)n3)c(C(F)F)n2)cc1 (some centres unmarked)
value_observed: > 1 µM
--
molecule: O=C1CCC(n2c(=O)n(CCOCCOCCNC(=O)c3ccc(-n4cc(NC(=O)c5coc(-c6ccnc(NCC7CC7)c6)n5)c(C(F)F)n4)cc3)c3ccccc32)C(=O)N1 (centres unmarked)
value_observed: < 0.05 µM
--
molecule: Cn1c(=O)n(C2CCC(=O)NC2=O)c2ccc(CCCOCCCNCc3ccc(-n4cc(NC(=O)c5coc(-c6ccnc(NCC(F)(F)F)c6)n5)c(C(F)F)n4)cc3)cc21 (centres unmarked)
value_observed: < 0.05 µM
--
molecule: CN[C@@H](C)C(=O)N[C@H](C(=O)N1CCC[C@H]1c1nc(C(=O)c2cccc(OCCOCCOCCOCCOCCNCc3ccc(-n4cc(NC(=O)c5coc(-c6ccnc(NCC7CC7)c6)n5)c(C(F)F)n4)cc3)c2)cs1)C1CCCCC1
value_observed: 0.5 to 1 µM
--
molecule: Cn1c(=O)n(C2CCC(=O)NC2=O)c2ccc(CCCOCCOCCNC(=O)c3ccc(-n4cc(NC(=O)c5coc(-c6ccnc(NCC7CC7)c6)n5)c(C(F)F)n4)cc3F)cc21 (centres unmarked)
value_observed: < 0.05 µM
--
molecule: O=C1CCC(n2c(=O)oc3cc(CCCOCCOCCNC(=O)c4ccc(-n5cc(NC(=O)c6coc(-c7ccnc(NCC8CC8)c7)n6)c(C(F)F)n5)cc4)ccc32)C(=O)N1 (centres unmarked)
value_observed: < 0.05 µM
--
molecule: Cn1c(=O)n([C@@H]2CCC(=O)NC2=O)c2cccc(CCCOCCOCCNCc3ccc(-n4cc(NC(=O)c5coc(-c6ccnc(NCC(F)(F)F)c6)n5)c(C(N)=O)n4)cc3)c21
value_observed: < 0.05 µM
--
molecule: Cn1c(=O)n(C2CCC(=O)NC2=O)c2ccc(CCCOCC(C)(C)COCCCNCc3ccc(-n4cc(NC(=O)c5coc(-c6ccnc(NCC7CC7)c6)n5)c(C(F)F)n4)cc3)cc21 (centres unmarked)
value_observed: 0.1 to 0.5 µM
--
molecule: O=C1CCC(n2c(=O)oc3c(CCCOCCCNC(=O)c4ccc(-n5cc(NC(=O)c6coc(-c7ccnc(NCC8CC8)c7)n6)c(C(F)F)n5)cn4)cccc32)C(=O)N1 (centres unmarked)
value_observed: < 0.05 µM
--
molecule: CN[C@@H](C)C(=O)N[C@H](C(=O)N1Cc2cc(OCCOCCOCCOCCNCc3ccc(-n4cc(NC(=O)c5coc(-c6ccnc(NCC7CC7)c6)n5)c(C(F)F)n4)cc3)ccc2C[C@H]1C(=O)N[C@@H]1CCCc2ccccc21)C(C)(C)C
value_observed: 0.5 to 1 µM
--
molecule: O=C1CCC(N2Cc3c(NC4CCN(CCOCCOCCNCc5ccc(-n6cc(NC(=O)c7coc(-c8ccnc(NCC9CC9)c8)n7)c(C(F)F)n6)cc5)CC4)cccc3C2=O)C(=O)N1 (centres unmarked)
value_observed: 0.5 to 1 µM
